Known AC50 of a selection of molecules
# MEASURED ON: Alpha-2A adrenergic receptor (Homo sapiens, UniProt P08913)
# Sequence (P08913 whole entry): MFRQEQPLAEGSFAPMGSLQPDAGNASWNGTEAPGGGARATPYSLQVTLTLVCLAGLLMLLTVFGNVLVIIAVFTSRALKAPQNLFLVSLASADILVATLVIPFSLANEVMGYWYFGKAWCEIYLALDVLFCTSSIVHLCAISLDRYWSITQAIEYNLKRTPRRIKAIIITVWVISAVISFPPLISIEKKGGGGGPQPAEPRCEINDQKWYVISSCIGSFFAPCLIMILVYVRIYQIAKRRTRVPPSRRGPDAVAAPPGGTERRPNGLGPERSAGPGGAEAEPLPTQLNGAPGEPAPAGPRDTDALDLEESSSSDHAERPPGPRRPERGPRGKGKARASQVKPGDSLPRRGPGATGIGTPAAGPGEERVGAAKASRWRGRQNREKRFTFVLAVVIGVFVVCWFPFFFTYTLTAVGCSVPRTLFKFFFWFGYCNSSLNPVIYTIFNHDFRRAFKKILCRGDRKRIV
# Type: functional, cell-based
MEASUREMENT NAME: AC50

INSERT INTO assay_data (molecule, measurement_name, reported_value) VALUES
  ('CCCCCCCCOc1ccccc1C(=O)Nc1ccc(C(=O)OCC[N+](C)(CC)CC)cc1 [OTILONIUM BROMIDE]', 'AC50', '> 10 µM'),
  ('CN(C)CCCN1c2ccccc2CCc2ccc(Cl)cc21', 'AC50', '> 10 µM'),
  ('CCCS(=O)(=O)Nc1ccc(F)c(C(=O)c2c[nH]c3ncc(-c4ccc(Cl)cc4)cc23)c1F', 'AC50', '> 30 µM'),
  ('CCN(CC)CCOC(=O)c1ccc(N)cc1', 'AC50', '> 10 µM'),
  ('CN1C(=O)CC(=O)N(c2ccccc2)c2cc(Cl)ccc21', 'AC50', '> 10 µM'),
  ('C[N+](C)(C)CC(=O)O', 'AC50', '> 30 µM'),
  ('O=C(O)CCn1c2c(c3ccccc31)C[C@H](NS(=O)(=O)c1ccc(F)cc1)CC2', 'AC50', '> 10 µM'),
  ('CC(C)c1c(C(=O)Nc2ccccc2)c(-c2ccccc2)c(-c2ccc(F)cc2)n1CC[C@@H](O)C[C@@H](O)CC(=O)O', 'AC50', '> 10 µM'),
  ('OCc1cc([C@@H](O)CNCCCCCCOCCOCc2c(Cl)cccc2Cl)ccc1O', 'AC50', '> 30 µM'),
  ('CN1CC(=O)N2[C@H](c3ccc4c(c3)OCO4)c3[nH]c4ccccc4c3C[C@@H]2C1=O', 'AC50', '> 10 µM'),
  ('N[C@@H](C(=O)N[C@@H]1C(=O)N2C(C(=O)O)=C(Cl)CS[C@H]12)c1ccccc1 [CEFACLOR ANHYDROUS]', 'AC50', '> 30 µM'),
  ('CC(C(O)c1ccc(O)cc1)N1CCC(Cc2ccccc2)CC1 (configuration not stated)', 'AC50', '> 30 µM');
